# Tested on: Plasmodium falciparum
# assayProcedure: In vitro antimalarial activity against drug-sensitive Plasmodium falciparum NF54
Label key: Y means IC50 under 20 nM; N means IC50 of 20 nM or more.

input: Quick check: IC50 of C[C@@H]1CC[C@H]2[C@@H](C)C(=O)O[C@@H]3O[C@@]4(C)CC[C@@H]1[C@]32OO4 [ARTEMISININ] under 20 nM?
output: Y

input: Quick check: IC50 of O=C(OC[C@H]1CCCCC12OOC1(CCCC[C@H]1COC(=O)c1ccccc1)OO2)c1ccccc1 (stereo partly drawn) under 20 nM?
output: N

input: Quick check: IC50 of c1ccc(COC[C@H]2CCCCC23OOC2(CCCC[C@H]2COCc2ccccc2)OO3)cc1 (stereo partly drawn) under 20 nM?
output: N

input: Quick check: IC50 of O=C(O)CC[C@H]1CCCCC12OOC1(CCCC[C@H]1CCC(=O)O)OO2 (stereo partly drawn) under 20 nM?
output: N

input: Quick check: IC50 of C#CC[C@@H]1CCCCC12OOC1(CCCC[C@@H]1CC#C)OO2 (stereo partly drawn) under 20 nM?
output: Y

input: Quick check: IC50 of C=CC[C@@H]1CCCCC12OOC1(CCCC[C@@H]1CC=C)OO2 (stereo partly drawn) under 20 nM?
output: N

input: Quick check: IC50 of CCOC(=O)C[C@H]1CCCCC12OOC1(CCCC[C@H]1CC(=O)OCC)OO2 (stereo partly drawn) under 20 nM?
output: Y

input: Quick check: IC50 of O=C(O)C[C@H]1CCCCC12OOC1(CCCC[C@H]1CC(=O)O)OO2 (stereo partly drawn) under 20 nM?
output: N

input: Quick check: IC50 of COC[C@H]1CCCCC12OOC1(CCCC[C@H]1COC)OO2 (stereo partly drawn) under 20 nM?
output: Y

input: Quick check: IC50 of OC[C@@H]1CCCCC12OOC1(CCCC[C@@H]1CO)OO2 (stereo partly drawn) under 20 nM?
output: N

input: Quick check: IC50 of C[C@@H]1CCCCC12OOC1(CCCC[C@@H]1C)OO2 (stereo partly drawn) [WR-148999] under 20 nM?
output: N

input: Quick check: IC50 of c1ccc(C[C@H]2CCCCC23OOC2(CCCC[C@H]2Cc2ccccc2)OO3)cc1 (stereo partly drawn) under 20 nM?
output: N

input: Quick check: IC50 of CCOC(=O)CC[C@H]1CCCCC12OOC1(CCCC[C@H]1CCC(=O)OCC)OO2 (stereo partly drawn) under 20 nM?
output: Y

Reference source for all entries: ChEMBL document CHEMBL1132122
